Collected normalized RNA/DNA level with ligand (log10) values appear next to each entry.
B1: library; a variant is named by its letters at N, in order (parent)
chain: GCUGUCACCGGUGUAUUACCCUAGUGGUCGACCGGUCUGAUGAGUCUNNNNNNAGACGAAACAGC

Variants of: B1
Assay remarks: normalized RNA/DNA level with ligand (relative to sTRSVctl = 100) (log10 (% of sTRSVctl)); ligand: hypoxanthine (xanthine aptamer); higher = less ribozyme self-cleavage, higher mRNA level
Condition label: ligand concentration (+) RNA-Seq: 5 mM, HEK293T, reporter: mCherry (pCS4076), ligand present: yes
Metric: normalized RNA/DNA level with ligand (log10)

chain="GCUGUCACCGGUGUAUUACCCUAGUGGUCGACCGGUCUGAUGAGUCUCUGUGGAGACGAAACAGC [CUGUGG]" recorded_result=1.91
chain="GCUGUCACCGGUGUAUUACCCUAGUGGUCGACCGGUCUGAUGAGUCUAGUAGGAGACGAAACAGC [AGUAGG]" recorded_result=1.78
chain="GCUGUCACCGGUGUAUUACCCUAGUGGUCGACCGGUCUGAUGAGUCUCCAGACAGACGAAACAGC [CCAGAC]" recorded_result=1.95
chain="GCUGUCACCGGUGUAUUACCCUAGUGGUCGACCGGUCUGAUGAGUCUUACGACAGACGAAACAGC [UACGAC]" recorded_result=1.92
chain="GCUGUCACCGGUGUAUUACCCUAGUGGUCGACCGGUCUGAUGAGUCUAAGCGCAGACGAAACAGC [AAGCGC]" recorded_result=1.89
chain="GCUGUCACCGGUGUAUUACCCUAGUGGUCGACCGGUCUGAUGAGUCUACGGCUAGACGAAACAGC [ACGGCU]" recorded_result=1.88
chain="GCUGUCACCGGUGUAUUACCCUAGUGGUCGACCGGUCUGAUGAGUCUGUGGUUAGACGAAACAGC [GUGGUU]" recorded_result=1.96
chain="GCUGUCACCGGUGUAUUACCCUAGUGGUCGACCGGUCUGAUGAGUCUGUUACCAGACGAAACAGC [GUUACC]" recorded_result=1.91
chain="GCUGUCACCGGUGUAUUACCCUAGUGGUCGACCGGUCUGAUGAGUCUACCACAAGACGAAACAGC [ACCACA]" recorded_result=1.94
chain="GCUGUCACCGGUGUAUUACCCUAGUGGUCGACCGGUCUGAUGAGUCUUCUUAGAGACGAAACAGC [UCUUAG]" recorded_result=1.93
chain="GCUGUCACCGGUGUAUUACCCUAGUGGUCGACCGGUCUGAUGAGUCUACAGUUAGACGAAACAGC [ACAGUU]" recorded_result=1.91
